Listing of recorded IC50 by entry.
# Target: orexin-1 (Homo sapiens (Human), UniProt O43613)
# Sequence (O43613 whole entry): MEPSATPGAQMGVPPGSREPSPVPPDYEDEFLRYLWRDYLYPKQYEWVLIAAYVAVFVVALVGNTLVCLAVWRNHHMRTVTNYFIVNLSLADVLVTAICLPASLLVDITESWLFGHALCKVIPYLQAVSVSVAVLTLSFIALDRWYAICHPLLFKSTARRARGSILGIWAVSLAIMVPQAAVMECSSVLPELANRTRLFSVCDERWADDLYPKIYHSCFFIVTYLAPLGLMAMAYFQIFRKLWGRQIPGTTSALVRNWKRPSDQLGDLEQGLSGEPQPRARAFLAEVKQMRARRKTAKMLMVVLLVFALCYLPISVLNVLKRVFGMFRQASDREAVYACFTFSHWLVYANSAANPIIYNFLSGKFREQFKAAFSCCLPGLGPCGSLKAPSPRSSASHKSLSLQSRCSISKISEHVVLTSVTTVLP
# Test Method Notes: Intracellular calcium measurement (FLIPR), CHO cells expressing human orexin-1 receptor, 3 nM orexin-A
# Type: cell-based
# Condition Details: CHO cells expressing human orexin-1 receptor, FLIPR, 3 nM orexin-A; geometric mean if determined several times; read-out: IC50 OX1
Numbers only here, please. The scale is nM.

// worked examples, IC50 included
- Entry Smiles: "Cc1ccc(-n2nccn2)c(C(=O)N2CCC[C@@]2(C)c2nnc(-c3cccc(Cl)c3C)[nH]2)c1"
  IC50 [nM]: 272
- Entry Smiles: "O=C(c1cc(Cl)ccc1-n1nccn1)N1CCC[C@H]1c1noc(-c2ccccc2OC(F)(F)F)n1"
  IC50 [nM]: 68

Look up and report measured IC50 for this entry: "Cc1c(Cl)cccc1-c1noc([C@@H]2CCCN2C(=O)c2ncsc2-c2cccc(Cl)c2)n1"
237

Look up and report measured IC50 for this entry: "CCOc1c(F)cccc1-c1nc([C@@H]2CCCN2C(=O)c2cc(Cl)ccc2-n2nccn2)no1"
38
